Test: chemical genetic growth profiling, strain panel (AID 1159580);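 note: tested at 20 µM; growth read once vehicle control cultures reached saturation at 30 °C; 1 = growth at the plate median or of vehicle wells; lower values mean less growth of the strain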
Conditions: S. cerevisiae deletion strains, growth OD, locus YOR080W, strain dia2, stronger effect = lower value
Out of some 5,500 compounds screened, about 2,000 (36%) were called active. Roughly 18% stayed inconclusive and do not appear here. The list shows a part of the results.
VALUE KIND: normalized growth
No unit in the answer, please; the number alone is enough.

| COMPOUND | VAL |
| --- | --- |
| CN(C)[C@@H]1C(=O)C(C(=O)NCN2CCCC2)=C(O)[C@@]2(O)C(=O)C3=C(O)c4c(O)cccc4[C@@](C)(O)[C@H]3C[C@@H]12 | 1.01 |
| CCOC(=O)NNc1nncc2ccccc12 | 1.02 |
| CCCN(CCC)S(=O)(=O)c1ccc(C(=O)O)cc1 | 0.982 |
| O=P1(N(CCCl)CCCl)NCCCO1 (stereo not given) | 1.01 |
| O=C(O)c1cccnc1 | 0.993 |

Which normalized growth is listed for CC12CCC(=O)C=C1CCC1C2[C@@H](O)CC2(C)C1CC[C@]2(O)C(=O)COP(=O)(O)O (stereo not given in full) ?
0.999

What does the record list as normalized growth for CC(C)CCCC(C)C1CCC2C3=CC[C@H]4C[C@@H](O)CC[C@]4(C)C3CC[C@@]21C (stereo not given in full) ?
0.981
